Biological target: ELIC D113A/D158A (Dickeya chrysanthemi, UniProt P0C7B7, D113A/D158A/INS163G)
Construct: expressed in transfected cells; host or cells: X. laevis oocytes
Assay: cell-based
Type: cell-based, Erwinia chrysanthemi
Details: 113A/158A; Ba^2+ 10 mM; agonist cysteamine
Protocol: Constructs containing the gene of either the WT or mutant channels preceded by the signal sequence of the chicken α7nAchR were cloned into the pTLN vector for expression in X. laevis oocytes. […] Currents were recorded in bath solutions containing 10 mM HEPES (pH 7), 130 mM NaCl, and the indicated concentrations of cysteamine and divalent cations. […]
METRIC_NAME: pEC50
Keep in mind that pEC50 stands for -log10 of concentration in molar terms.

Short answer for NCCS [cysteamine] : pEC50 was 2.27
